Experiment: in vivo
Settings: mouse, po
QUANTITY_NAME: LD50 (mg/kg)
Note: unit mg/kg is implicit; provide only the numeric part.

Task item: What LD50 value was documented for this molecule, CCOC(=O)Nc1ccc(NCc2ccc(F)cc2)nc1N [Flupirtin] ?
Reply: 552
